Give melting point for every item shown.

Task: What does the record list as melting point for CCO/N=C/C(C)NC(=O)c1ccc(-c2noc(C(F)(F)F)n2)cc1 (stereo not drawn) ?
Result: 142 to 143 °C

Task: What does the record list as melting point for CON=CC(C)NC(=O)c1ccc(-c2noc(C(F)(F)F)n2)cc1 (stereo not drawn) ?
Result: 164 to 165 °C

Task: What does the record list as melting point for CON=CCNC(=O)c1ccc(-c2noc(C(F)(F)F)n2)cc1 ?
Result: 155 to 157 °C

Task: What does the record list as melting point for CON=CCCNC(=O)c1ccc(-c2noc(C(F)(F)F)n2)cc1 ?
Result: 136 to 140 °C

Task: What does the record list as melting point for CCON=CCCNC(=O)c1ccc(-c2noc(C(F)(F)F)n2)c(F)c1 ?
Result: 108 to 110 °C

Task: What does the record list as melting point for CON=CC(C)NC(=O)c1ccc(-c2noc(C(F)(F)F)n2)c(F)c1 (stereo not drawn) ?
Result: 119 to 121 °C

Task: What does the record list as melting point for CC(/C=N\OCCF)NC(=O)c1ccc(-c2noc(C(F)(F)F)n2)cc1 (stereo not drawn) ?
Result: 172 to 173 °C

Task: What does the record list as melting point for CON=CCNC(=O)c1ccc(-c2noc(C(F)(F)F)n2)c(F)c1 ?
Result: 120 to 122 °C

Task: What does the record list as melting point for CON=C(C)CNC(=O)c1ccc(-c2noc(C(F)(F)F)n2)c(F)c1 ?
Result: 131 to 134 °C

These data points were gathered from patent US11192867B2.
